assay: activity coefficient (dimensionless); of the first substance listed, at infinite dilution; xn = mol fraction of the nth substance listed; conditions: 418.15 K; 101 kPa; Liquid; Chromatography; x1 = 0

- compound: "CCCCCCCCCCCCCC [tetradecane] + CCCCCCCCCCCCCCCCCCC(CCCCCCCCCCCCCCCCCC)CCCCC(CCCCCCCCCCCCCCCCCC)CCCCCCCCCCCCCCCCCC"
  activity coefficient: 0.495
- compound: "C=CCCCCCCCCC [1-undecene] + CCCCCCCCCCCCCCCCCCC(CCCCCCCCCCCCCCCCCC)CCCCC(CCCCCCCCCCCCCCCCCC)CCCCCCCCCCCCCCCCCC"
  activity coefficient: 0.436
- compound: "C#CCCCCC [1-heptyne] + CCCCCCCCCCCCCCCCCCC(CCCCCCCCCCCCCCCCCC)CCCCC(CCCCCCCCCCCCCCCCCC)CCCCCCCCCCCCCCCCCC"
  activity coefficient: 0.399

====

experiment: activity coefficient (dimensionless); of the first substance listed, at infinite dilution; xn = mol fraction of the nth substance listed; settings: 373.15 K; 101 kPa; Liquid; Chromatography; x1 = 0
Listing: activity coefficient of selected molecules
measured.quantity: activity coefficient

- molecule: "C1CC[C@@H]2CCC[C@H]2C1 [trans-bicyclo[4.3.0]nonane] + CCCCCCCCCCCCCCCCCCC(CCCCCCCCCCCCCCCCCC)CCCCC(CCCCCCCCCCCCCCCCCC)CCCCCCCCCCCCCCCCCC"
  experimental.value: 0.267
- molecule: "CC(C)C(C)C(C)C [2,3,4-trimethylpentane] + CCCCCCCCCCCCCCCCCCC(CCCCCCCCCCCCCCCCCC)CCCCC(CCCCCCCCCCCCCCCCCC)CCCCCCCCCCCCCCCCCC"
  experimental.value: 0.353
- molecule: "C#CCCCCCCCC [1-decyne] + CCCCCCCCCCCCCCCCCCC(CCCCCCCCCCCCCCCCCC)CCCCC(CCCCCCCCCCCCCCCCCC)CCCCCCCCCCCCCCCCCC"
  experimental.value: 0.442
- molecule: "CCC(C)C(C)CC (stereo not given) [3,4-dimethylhexane] + CCCCCCCCCCCCCCCCCCC(CCCCCCCCCCCCCCCCCC)CCCCC(CCCCCCCCCCCCCCCCCC)CCCCCCCCCCCCCCCCCC"
  experimental.value: 0.353
- molecule: "CCCCC [pentane] + CCCCCCCCCCCCCCCCCCC(CCCCCCCCCCCCCCCCCC)CCCCC(CCCCCCCCCCCCCCCCCC)CCCCCCCCCCCCCCCCCC"
  experimental.value: 0.336

====

test: activity coefficient (dimensionless); of the first substance listed, at infinite dilution; xn = mol fraction of the nth substance listed; conditions: 388.15 K; 101 kPa; Liquid; Chromatography; x1 = 0

- molecule: "CCCCCCCC [octane] + CCCCCCCCCCCCCCCCCCC(CCCCCCCCCCCCCCCCCC)CCCCC(CCCCCCCCCCCCCCCCCC)CCCCCCCCCCCCCCCCCC"
  activity coefficient: 0.381
- molecule: "CCc1ccccc1 [ethylbenzene] + CCCCCCCCCCCCCCCCCCC(CCCCCCCCCCCCCCCCCC)CCCCC(CCCCCCCCCCCCCCCCCC)CCCCCCCCCCCCCCCCCC"
  activity coefficient: 0.315
- molecule: "C1CCC2CCCC2C1 (stereo not drawn) [1H-indene, octahydro-] + CCCCCCCCCCCCCCCCCCC(CCCCCCCCCCCCCCCCCC)CCCCC(CCCCCCCCCCCCCCCCCC)CCCCCCCCCCCCCCCCCC"
  activity coefficient: 0.268
